Quick list: Relative Activity (%) per entry.
# tested target: inosine-guanosine kinase (Escherichia coli, UniProt P0AEW6)
# Construct: made in house; host or cells: Escherichia coli
# Sequence (P0AEW6 1-434): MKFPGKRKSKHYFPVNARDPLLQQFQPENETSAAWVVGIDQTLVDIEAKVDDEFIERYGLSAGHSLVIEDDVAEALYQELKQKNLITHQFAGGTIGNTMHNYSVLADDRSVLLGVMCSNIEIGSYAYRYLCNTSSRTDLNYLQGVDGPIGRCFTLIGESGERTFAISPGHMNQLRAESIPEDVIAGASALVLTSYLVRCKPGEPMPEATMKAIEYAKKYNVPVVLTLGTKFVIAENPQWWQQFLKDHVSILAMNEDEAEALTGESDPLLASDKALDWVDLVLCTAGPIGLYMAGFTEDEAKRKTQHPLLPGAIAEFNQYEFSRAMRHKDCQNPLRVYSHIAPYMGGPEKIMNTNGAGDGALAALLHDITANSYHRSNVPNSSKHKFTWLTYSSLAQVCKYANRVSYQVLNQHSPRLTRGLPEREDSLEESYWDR
# protocol summary: Effect of added metal salts on inosine-guanosine kinase activity (inhibitor test)
# Format: biochemical
# condition: 1 mM metal salt added to reaction solution a, 300 mM KCl, 30° C., 30 minutes; no metal salt = 100
readout name: Relative Activity (%)

• CC(=O)[O-].CC(=O)[O-].[Zn+2] [Zn(CH3 COO)2] = 5
• [Ca+2].[Cl-].[Cl-] [CaCl2] = 107
• [Cl][Fe][Cl] [FeCl2] = 112
• [Cl][Mn][Cl] [MnCl2] = 134
• [Cl-].[Cl-].[Co+2] [CoCl2] = 32
• [F-].[Na+] [NaF] = 96
• O=S(=O)([O-])[O-].[Zn+2] [ZnSO4] = 5
• [Cl][Cu][Cl] [CuCl2] = 1
• [Cl][Fe]([Cl])[Cl] [FeCl3] = 131
• [Ba+2].[Cl-].[Cl-] [BaCl2] = 116
• [Cl-].[Na+] [NaCl] = 104
